For each record, write down the corresponding OD450.
- Tgt: T1, Human CD19-his protein (human, UniProt P15391 20-291)
- T1 construct: bought protein; also called human CD19 protein; recombinant human CD19-His; not shown: His tag
- T1 sequence (looked up): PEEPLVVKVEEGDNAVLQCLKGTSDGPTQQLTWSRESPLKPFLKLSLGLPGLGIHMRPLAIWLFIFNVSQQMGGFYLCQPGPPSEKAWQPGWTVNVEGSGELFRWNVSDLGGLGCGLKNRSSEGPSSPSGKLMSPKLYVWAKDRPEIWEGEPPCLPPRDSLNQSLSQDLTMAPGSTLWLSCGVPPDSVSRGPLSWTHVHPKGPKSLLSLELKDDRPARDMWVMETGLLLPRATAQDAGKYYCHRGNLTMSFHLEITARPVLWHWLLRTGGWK
- Test: ELISA, antibody at 0.0001 nM

binder="F4.4.6 (antibody, human IgG1, V domains shown, human-murine chimeric antibody, human IgG1) VH: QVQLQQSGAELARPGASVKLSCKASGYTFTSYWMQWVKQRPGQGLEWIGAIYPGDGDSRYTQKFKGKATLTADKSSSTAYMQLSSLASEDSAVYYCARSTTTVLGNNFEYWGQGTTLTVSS VL: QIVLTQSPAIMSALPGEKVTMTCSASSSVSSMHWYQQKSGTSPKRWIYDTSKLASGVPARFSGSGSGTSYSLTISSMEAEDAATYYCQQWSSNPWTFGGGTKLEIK" value_observed=0.05
binder="F3.126.15 (antibody, human IgG1, V domains shown, human-murine chimeric antibody, human IgG1) VH: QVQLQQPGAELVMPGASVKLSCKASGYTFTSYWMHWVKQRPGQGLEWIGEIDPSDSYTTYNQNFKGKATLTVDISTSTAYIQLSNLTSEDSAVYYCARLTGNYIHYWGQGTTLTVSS VL: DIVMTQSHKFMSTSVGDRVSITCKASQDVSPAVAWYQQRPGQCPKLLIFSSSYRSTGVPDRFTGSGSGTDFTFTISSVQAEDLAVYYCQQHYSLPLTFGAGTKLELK" value_observed=0.05

input: // query OD450 value for entry F5.7.1 (antibody, human IgG1, V domains shown, human-murine chimeric antibody, human IgG1) VH: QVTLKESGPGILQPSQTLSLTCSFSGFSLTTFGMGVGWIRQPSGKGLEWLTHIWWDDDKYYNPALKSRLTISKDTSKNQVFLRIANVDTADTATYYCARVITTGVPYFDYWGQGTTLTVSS VL: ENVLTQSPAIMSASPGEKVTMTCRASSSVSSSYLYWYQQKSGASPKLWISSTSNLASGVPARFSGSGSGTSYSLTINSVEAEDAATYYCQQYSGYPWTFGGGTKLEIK
output: 0.06
